biological target: PRKD2 (human) (UniProt Q9BZL6); assay: KINOMEscan competition binding; settings: compound 10.0 µM
Sequence (Q9BZL6 whole entry, looked up): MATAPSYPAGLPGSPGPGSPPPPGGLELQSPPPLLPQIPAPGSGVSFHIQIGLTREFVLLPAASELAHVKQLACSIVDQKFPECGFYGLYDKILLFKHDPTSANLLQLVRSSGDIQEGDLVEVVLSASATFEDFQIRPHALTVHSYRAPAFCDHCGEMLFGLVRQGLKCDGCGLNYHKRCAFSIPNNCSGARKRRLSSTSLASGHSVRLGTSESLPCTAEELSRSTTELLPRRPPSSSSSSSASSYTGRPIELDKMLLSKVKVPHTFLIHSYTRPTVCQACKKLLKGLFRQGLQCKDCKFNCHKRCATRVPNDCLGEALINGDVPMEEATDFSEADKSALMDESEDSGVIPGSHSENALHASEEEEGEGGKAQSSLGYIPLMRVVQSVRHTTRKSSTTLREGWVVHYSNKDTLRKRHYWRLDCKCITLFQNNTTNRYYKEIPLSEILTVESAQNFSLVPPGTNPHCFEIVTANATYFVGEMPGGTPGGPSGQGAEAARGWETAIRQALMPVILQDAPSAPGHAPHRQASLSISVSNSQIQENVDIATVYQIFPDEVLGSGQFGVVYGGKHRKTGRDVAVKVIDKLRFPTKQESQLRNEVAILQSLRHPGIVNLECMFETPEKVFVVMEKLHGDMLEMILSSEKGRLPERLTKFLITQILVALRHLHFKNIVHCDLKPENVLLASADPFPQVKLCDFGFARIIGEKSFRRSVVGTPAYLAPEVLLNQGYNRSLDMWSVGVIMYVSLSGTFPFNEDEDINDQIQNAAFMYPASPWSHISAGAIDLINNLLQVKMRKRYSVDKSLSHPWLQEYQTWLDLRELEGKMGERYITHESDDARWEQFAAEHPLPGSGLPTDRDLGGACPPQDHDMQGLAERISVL
reported_endpoint: kinase still bound, per cent of control (%)
I only need the number, in %, no unit after it.

Example compounds with recorded kinase still bound, per cent of control:
compound=Cc1ccc2nc(NCCN)c3ncc(C)n3c2c1 observed_measurement=72
compound=OCCCNc1cc(-c2ccnc(Nc3cccc(Cl)c3)n2)ccn1 observed_measurement=100
compound=Cn1c(=O)n(-c2ccc(C(C)(C)C#N)cc2)c2c3cc(-c4cnc5ccccc5c4)ccc3ncc21 observed_measurement=100
compound=C[C@@H](Oc1cc(-n2cnc3ccc(CN4CCN(C)CC4)cc32)sc1C(N)=O)c1ccccc1C(F)(F)F observed_measurement=27
compound="COc1cc(C(=O)NC2CCN(C)CC2)ccc1Nc1ncc2c(n1)N(C1CCCC1)C(C)CC(=O)N2C (centres undefined)" observed_measurement=100
compound=O=C1Nc2ccc(I)cc2/C1=C/c1cc(Br)c(O)c(Br)c1 observed_measurement=100
compound=CCC(=O)N1CCN(c2ccc(-n3c(=O)ccc4cnc5ccc(-c6cnc7ccccc7c6)cc5c43)cc2C(F)(F)F)CC1 observed_measurement=100
compound=C=CC(=O)Nc1cccc(Oc2nc(Nc3ccc(N4CCN(C)CC4)cc3OC)ncc2Cl)c1 observed_measurement=15

We next turn to a different compound, shown below.
q: Given the entry Cc1ccc(NC(=O)c2cccc(C(C)(C)C#N)c2)cc1Nc1ccc2ncn(C)c(=O)c2c1 , what kinase still bound, per cent of control was observed with PRKD2 (human) (UniProt Q9BZL6)?
a: 99
